# Test system: L1210 leukemia ip in BDF1 mice, survival T/C
# protocol-notes: NCI In Vivo Anticancer Drug Screen. Data for tumor model L1210 Leukemia (intraperitoneal) in B6D2F1 (BDF1) mice
# condition: endpoint: mean survival time; dose: 50.0 mg/kg/injection; schedule: Q04DX002 (ip); vehicle: Klucel (hydroxypropylcellulose) (HPC); higher = longer survival
Toxic doses and inconclusive results are not listed.
quantity-name: T/C

1) O=S(=O)(CCCl)c1ccc2ccccc2c1: 104 % of control
2) Nc1ccccc1S(N)(=O)=O: 97 % of control
3) Cc1nnc(/N=C/c2ccccc2)n1/N=C/c1ccccc1: 90 % of control
4) Cc1ncc(CCl)n1Cc1ccccc1: 100 % of control

---

// reported T/C per item
# Tested on: L1210 leukemia ip in BDF1 mice, survival T/C
# protocol-notes: NCI In Vivo Anticancer Drug Screen. Data for tumor model L1210 Leukemia (intraperitoneal) in B6D2F1 (BDF1) mice
# condition: endpoint: mean survival time; dose: 150.0 mg/kg/injection; schedule: Q01DX001 (ip); vehicle: carboxymethylcellulose (CMC); higher = longer survival
Inconclusive results and toxic doses are left out.
quantity-name: T/C

1) CC(=O)CC(=O)N(C)c1ccccc1: 105 % of control
2) Cc1c2ccccc2[n+](C)c2ccc3ccccc3c12: 94 % of control
3) O=C1C2(Cl)C3(Cl)C4(Cl)C(Cl)(Cl)C5(Cl)[C@]3(Cl)C1(Cl)[C@]5(Cl)C24Cl (stereo partly specified): 96 % of control
4) O=NN1CCN(c2ccccc2)C1=O: 98 % of control
5) C=CCC1(C(=C)C)C(=O)NC(=O)NC1=O: 93 % of control
6) NC(CO)Cc1ccccc1 (stereo unspecified): 91 % of control

---

# Test system: L1210 leukemia ip in BDF1 mice, survival T/C
# protocol-notes: NCI In Vivo Anticancer Drug Screen. Data for tumor model L1210 Leukemia (intraperitoneal) in B6D2F1 (BDF1) mice
# condition: endpoint: mean survival time; dose: 150.0 mg/kg/injection; schedule: Q01DX001 (ip); vehicle: saline; higher = longer survival
Inconclusive results and toxic doses are left out.
quantity-name: T/C

1. COc1cc(N(CCCl)CCCl)c(OC)cc1/C=N\NC(=O)CN(C)C: 124 % of control
2. C=CC1(CCC(C)C)C(=O)NC(=O)NC1=O: 105 % of control
3. Cc1cc(C)[n+]2ccccc2n1: 98 % of control
4. O=C(O)c1cc([N+](=O)[O-])ccc1Oc1cccc(Cl)c1: 95 % of control
5. C=C(C)C(=O)OCC(O)C[N+](C)(C)C (stereo not given): 98 % of control

---

# T/C listing for each entry below
# Tested on: L1210 leukemia ip in BDF1 mice, survival T/C
# protocol-notes: NCI In Vivo Anticancer Drug Screen. Data for tumor model L1210 Leukemia (intraperitoneal) in B6D2F1 (BDF1) mice
# condition: endpoint: mean survival time; dose: 200.0 mg/kg/injection; schedule: Q01DX009 (ip); vehicle: water; higher = longer survival
Inconclusive results and toxic doses are left out.
quantity-name: T/C

1. O=C(c1ccccc1)c1c(-c2ccccc2)c(C(=O)c2ccccc2)c2ccccc2c1Cl: 101 % of control
2. CNCCN(C)CCN(C)Cc1ccc(OC)cc1: 107 % of control
3. CCN(CC)CCCC(C)NC(=O)c1ccc(N(C)C)nc1 (stereo not given): 104 % of control
4. COC(=O)CSc1ncc2cnccn12: 98 % of control
5. CC(O)Cc1c[nH]c(=O)[nH]c1=O (stereo not given): 107 % of control
